- assay.target: T1, human gastric inhibitory peptide receptor (GIPR) (human, UniProt P48546 22-466)
- T1 sequence (looked up): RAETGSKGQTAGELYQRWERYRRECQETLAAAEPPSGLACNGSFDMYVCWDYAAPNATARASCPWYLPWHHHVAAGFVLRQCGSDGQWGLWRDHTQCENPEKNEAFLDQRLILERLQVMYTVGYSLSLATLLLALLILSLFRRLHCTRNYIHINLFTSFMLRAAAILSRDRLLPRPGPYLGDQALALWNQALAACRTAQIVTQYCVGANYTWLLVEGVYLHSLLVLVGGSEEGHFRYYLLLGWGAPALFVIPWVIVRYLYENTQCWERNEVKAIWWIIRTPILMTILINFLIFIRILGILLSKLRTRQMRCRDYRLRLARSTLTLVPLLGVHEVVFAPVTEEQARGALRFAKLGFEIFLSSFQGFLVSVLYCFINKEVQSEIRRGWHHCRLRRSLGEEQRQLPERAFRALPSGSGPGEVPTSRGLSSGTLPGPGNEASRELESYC
- protocol: cell-based or functional assay
Output t for records whose hGIPR cAMP Rel EC50 is lower than 0.1 nM, f for records at or above 0.1 nM.

>>> category_label("XXEGTXTSDYSILLDKKAQXAFIEYLIEGGPSSGAPPPS (D-Tyr1, Aib2, αMeF6, (2-[2-(2-Amino-ethoxy)-ethoxy]-acetyl)2-(γ-Glu)-CO-(CH2)18-CO2H on K17, Aib20, C-terminal NH2) [Example 329]")
"f"
>>> category_label("YXEGTFTSDYSIXLDKKAQXEFIEYLIEGGPSSG (Aib2, αMeL13, (2-[2-(2-Amino-ethoxy)-ethoxy]-acetyl)2-(γ-Glu)-CO-(CH2)16-CO2H on K17, Aib20, C-terminal NH2) [Example 304]")
"t"
>>> category_label("XXEGTFTSDYSIXLDXKAQXAFIXYLIEGGPSSGAPPPS (D-Tyr1, Aib2, αMeL13, Orn16, (2-[2-(2-Amino-ethoxy)-ethoxy]-acetyl)2-(γ-Glu)-CO-(CH2)18-CO2H on K17, Aib20, D-Glu24, C-terminal NH2) [Example 357]")
"f"
>>> category_label("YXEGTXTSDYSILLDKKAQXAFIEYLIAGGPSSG (Aib2, αMeF(2F)6, (2-[2-(2-Amino-ethoxy)-ethoxy]-acetyl)2-(γ-Glu)-CO-(CH2)16-CO2H on K17, Aib20, C-terminal NH2) [Example 313]")
"t"
>>> category_label("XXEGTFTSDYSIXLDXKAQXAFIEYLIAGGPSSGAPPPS (D-Tyr1, Aib2, αMeL13, Orn16, (2-[2-(2-Amino-ethoxy)-ethoxy]-acetyl)2-(γ-Glu)-CO-(CH2)18-CO2H on K17, Aib20, C-terminal NH2) [Example 346]")
"f"
